ASSAY NAME: Cytotoxicity, MTT method
CONDITIONS: human
Method: These compounds were also tested for their in vitro cytotoxicity against three human tumor cell lines, A549 (human lung adenocarcinoma), HeLa (human cervical carcinoma) and HepG2 (human liver hepatocellular carcinoma), using the MTT method as described. The three tumor cell lines were generously provided by Kunming Institute of Zoology, Chinese Academy of Sciences. […] IC50 values were calculated by SPSS 16.0 statistic software. […]
REPORTED PROPERTY: IC50 at 72 h

Below: 4 molecules and their reported IC50 at 72 h.
>  <MOLECULE>
C=C1CC[C@]2(C(=O)O)CC[C@]3(C)C(=CCC4[C@@]5(C)CC[C@@H](O)[C@](C)(CO)C5CC[C@]43C)C2C1 (stereo partly drawn) [Compound 6, quinatic acid]

>  <IC50 at 72 h>
> 100 µM

$$$$
>  <MOLECULE>
C=C1CC[C@]2(C(=O)O)CC[C@]3(C)C(=CCC4[C@@]5(C)CC[C@H](O)C(C)(C)C5CC[C@]43C)C2C1 (stereo partly drawn) [Compound 3, 3β-akebonoic acid]

>  <IC50 at 72 h>
52.9 µM

$$$$
>  <MOLECULE>
C=C1CC[C@]2(C(=O)O)CC[C@]3(C)C(=CCC4[C@@]5(C)CC[C@@H](O)C(C)(C)C5CC[C@]43C)C2C1 (stereo partly drawn) [Compound 5, 3α-akebonoic acid]

>  <IC50 at 72 h>
10.4 µM

$$$$
>  <MOLECULE>
C=C1CC[C@]2(C(=O)O)CC[C@]3(C)C(=CCC4[C@@]5(C)C[C@@H](O)[C@H](O)C(C)(C)C5CC[C@]43C)C2C1 (stereo partly drawn) [Compound 4]

>  <IC50 at 72 h>
14.3 µM

$$$$

Data request: IC50 at 72 h for CC1(O)CCC2(C(=O)O)CCC3(C)C(=CCC4C5(C)CC(O)C(O)C(C)(C)C5CCC43C)C2C1 (stereo not drawn) [Compound 1] ?
Data returned: > 100 µM

Data request: IC50 at 72 h for C=C1CCC2(C(=O)O)CCC3(C)C(=CCC4C5(C)CC(O)C(O)C(C)(C=O)C5CCC43C)C2C1 (stereo not drawn) [Compound 2] ?
Data returned: > 100 µM

Values compiled from paper PMC6271860.
